Entries and their pKd values follow.
- MEASUREMENT_TARGET: T1, Evasin-4 (untagged recombinant) (Rhipicephalus sanguineus, UniProt P0C8E9 24-127, appears to be highly glycosylated (six putative N-glycosylation sites))
- T1 sequence: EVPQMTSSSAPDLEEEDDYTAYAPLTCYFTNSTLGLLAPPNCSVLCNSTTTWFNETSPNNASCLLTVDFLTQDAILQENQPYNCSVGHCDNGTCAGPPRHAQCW
- ASSAY_COMMENT: SPR
In plain terms, pKd is the concentration in mol/L turned into minus its base-10 logarithm.

{"BINDER": "CCL5 E26A (ligand) SPYSSDTTPCCFAYIARPLPRAHIKAYFYTSGKCSNPAVVFVTRKNRQVCANPEKKWVREYINSLEMS", "RECORDED_VALUE": 6.71}
{"BINDER": "CCL1 (ligand) KSMQVPFSRCCFSFAEQEIPLRAILCYRNTSSICSNEGLIFKLKRGKEACALDTVGWVQRHRKMLRHCPSKRK", "RECORDED_VALUE": 6.95}
{"BINDER": "CCL3 (ligand) SLAADTPTACCFSYTSRQIPQNFIADYFETSSQCSKPGVIFLTKRSRQVCADPSEEWVQKYVSDLELSA", "RECORDED_VALUE": 7.48}

Documented pKd of CCL17 (ligand) ARGTNVGRECCLEYFKGAIPLRKLKTWYQTSEDCSRDAIVFVTVQGRAICSDPNNKRVKNAVKYLQSLERS : 6.90
